Target: T1, cyno LAIR-1-ECD (cynomolgus monkey)
T1 construct: Recombinant, expressed in mammalian cells; also called extracellular region of cyno LAIR-1
T1 chain: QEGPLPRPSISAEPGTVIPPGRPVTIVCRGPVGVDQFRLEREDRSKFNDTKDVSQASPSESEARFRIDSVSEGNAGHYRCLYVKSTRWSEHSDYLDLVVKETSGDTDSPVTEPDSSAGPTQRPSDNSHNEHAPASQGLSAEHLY
Assay: SPR (Biacore); antibody captured by anti-Fc; LAIR-1-ECD injected;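 further: Anti-Fc immobilized on a CM5 chip, LAIR-1-ECD (human or cynomolgus) injected at 3.3-10 nM and 25 °C, kinetics fitted by simultaneous global fit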
Recorded measurements of kon, one per entry
Enter your answer as a number in M⁻¹ s⁻¹; do not include the unit.

Consider the following illustrative entries.
anti-LAIR-1 antibody 47A1 (antibody, V domains shown, Monoclonal antibody from immunized mice (hybridoma)) VH: EVQLVESGGGLVQPKGSLKLSCAASGFTFNTYAIHWVRQAPGKGLEWVARIRSKSTNYATYYADSVKDRFTISRDDSQSMVFLQMNNLKTEDTAMYYCVRENWYYYALDYWGQGTSVTVSS VL: DIQMTQSPASLSASVGETVTITCRASGNIHNYLTWYQQKQGKSPQVLVYNAKTLEDGVPSRFSGSESGTQYSLKINSLQPEDFGSYYCQHFWSTPFTFGSGTKLEIK : 320000
anti-LAIR-1 antibody 62G10 (antibody, V domains shown, Monoclonal antibody from immunized mice (hybridoma)) VH: EVQLVETGGGLVQPKGSLKLSCATSGFTFNINAMNWVRQAPGKGLEWVARIRTKNNNFATYYADSVKDRFTISRDDSQSMLYLQMNNLKTEDTAMYYCVRGPYFDYWGQGTTLTVSS VL: DIQMTQSPASQSASLGESVTITCLASQTIGTWLAWYQQKPGKSPQLLIYAATSLADGVPSRFSGSGSGTKFSFKISNLQAEDFVTYYCQQLYSTPYTFGGGTKLEIK : 200000

Q: Please report the measured kon for anti-LAIR-1 antibody 61H4 (antibody, V domains shown, Monoclonal antibody from immunized mice (hybridoma)) VH: EVQLQQSGPEVLKPGASVKISCKASGYTFTDYYYMNWVKQSHGKSLEWIGYIYPNNGATSYNQKFKGKATLTVDKSSSTAYMELRSLTSEDSAVYYCARDGYSSNYYTMDYWGQGTSVTVSS VL: DVQMIQSPSSLSASLGDIVTMTCQASQGTSINLNWFQQKPGKAPKLLIYGASNLEDGVPSRFSGSRYGTDFTLTISSLEDEDMATYFCLQHTYLPYTFGGGTKLEIK
Ans: 80000

Numbers sourced from patent US20220041711A1.
